// data source = PubChem BioAssay (NCI)

List of TGI values.
- Test system: TK-10 renal
- method: NCI tumour cell line growth inhibition, 48 h

Solved cases (5 shown):
>>> meas_value("Nc1cn(C2OC(CC(c3ccccc3)(c3ccccc3)c3ccccc3)C(O)C2O)c(=O)[nH]c1=O (stereo not given)")
"96.2 µM"
>>> meas_value("Cc1cc(N(CCC#N)S(=O)(=O)c2ccccc2)ccc1C=Nc1cccc(C(=O)O)c1")
"> 100 µM"
>>> meas_value("[N-]=[N+]=CC(=O)C1(C(=O)C=[N+]=[N-])CC1")
"> 100 µM"
>>> meas_value("CC(=O)N1C(C(=O)NN2CCOCC2)CSC1c1ccccc1 (stereo not given)")
"> 100 µM"
>>> meas_value("CC[C@@]1(O)C(=O)OCc2c1cc1n(c2=O)Cc2cc3cc(Cl)ccc3nc2-1")
"> 100 µM"

Prompt: # get_value(readout='TGI', item= `CC(C)C[C@H](CC(=O)O)C(=O)N[C@@H](Cc1c[nH]c2ccccc12)C(=O)N[C@@H](C)c1ccccc1` )
Response: > 25 µM

Prompt: # get_value(readout='TGI', item= CN1C(=O)N(C)C2(CCN(CC(CC3OCCO3)c3ccc(F)cc3)CC2)C1=O (stereo not given) )
Response: > 100 µM

Prompt: # get_value(readout='TGI', item= `O=C1Cc2c(-c3ccccc3)cc(-c3ccccc3)nc2-c2ccccc2N1` )
Response: 5.68 µM

Prompt: # get_value(readout='TGI', item= `N#C/C(=C\c1ccc(O)c(O)c1)C(=O)NCc1ccc(C(F)(F)F)cc1` )
Response: 10.4 µM

Prompt: # get_value(readout='TGI', item= COC(=O)C(=O)C(CC(=O)Nc1cc(Cl)ccc1Cl)C(=O)OC (stereo not given) )
Response: > 100 µM

====

- System: IGROV1 ovarian
- method: NCI tumour cell line growth inhibition, 48 h
List of TGI values.

>>> meas_value("N=c1c2sc3nc4ccccc4n3c2ncn1Cc1ccccc1")
"> 100 µM"
>>> meas_value("Nc1nc(Cl)cc(NCC2(CO)CCCCC2)n1")
"> 100 µM"

Prompt: # get_value(readout='TGI', item= `O/N=C1/CCC/C1=C\c1ccccc1` )
Response: > 100 µM

Prompt: # get_value(readout='TGI', item= `CC1=C(C(=O)NNC(=O)Cc2ccccc2)CC(C(=O)NNC(=O)Cc2ccccc2)=C(C)N1` )
Response: > 100 µM

Prompt: # get_value(readout='TGI', item= CC(=O)OC1C[C@H]2C(OC(=O)c3ccccc3)C3C4(OC(C)=O)COC4C[C@H](OC(C)=O)[C@@]3(C)C(OC(C)=O)[C@H](OC(C)=O)C(=C1C)C2(C)C (stereo partly specified) )
Response: > 100 µM

Prompt: # get_value(readout='TGI', item= `CN(C)c1ccc(/C=C/C(=O)c2ccc(Nc3nc(Nc4ccc(F)cc4)nc(Nc4ccc(F)cc4)n3)cc2)cc1` )
Response: 45 µM

====

- System: KM20L2 colon
- method: NCI tumour cell line growth inhibition, 48 h
List of TGI values.

Solved cases (2 shown):
>>> meas_value("O=C(NCCCCCCCCCCCCNC(=O)c1cnc2ccccc2n1)c1cnc2ccccc2n1")
"> 100 µM"
>>> meas_value("CC(=O)NNc1nc(C)c(C(=O)NNC(=O)C(=O)Nc2ccc(Cl)c([N+](=O)[O-])c2)s1")
"> 100 µM"

Now for the molecule whose TGI we want.
Prompt: # get_value(readout='TGI', item= CCCCC(C(=O)C(=O)Nc1ccc(C)cc1C)C(=O)C(C)C (stereo not drawn) )
Response: > 100 µM

====

- System: OVCAR-8 ovarian
- method: NCI tumour cell line growth inhibition, 48 h
List of TGI values.

Solved cases (4 shown):
>>> meas_value("O=Cc1c2c(cc3c1CC1(C3)Cc3cc4c(c(C=O)c3C1)CCCC4)CCCC2")
"> 31.6 µM"
>>> meas_value("Cc1cccc2c(C3=C(c4cn(C)c5ccccc45)C(=O)NC3=O)cn(C)c12")
"> 25 µM"
>>> meas_value("Cc1ccc(S(=O)(=O)NC(=O)C2S(=O)(=O)OCCOS2(=O)=O)cc1")
"> 100 µM"
>>> meas_value("C1=N[C@]23C(=N[C@H](N=C2NCc2ccco2)[C@]24N=CNC2=N[C@H]3N=C4NCc2ccco2)N1")
"> 100 µM"

Prompt: Find TGI (OVCAR-8 ovarian) for the entry COC(=O)C(C(=O)C(=O)Nc1ccc(C)cc1)c1nc2ccc([N+](=O)[O-])cc2[nH]c1=O (stereo not drawn)
Response: > 100 µM

Prompt: Find TGI (OVCAR-8 ovarian) for the entry `Oc1ccc(NC(=S)Nc2ccccc2)cc1`
Response: > 100 µM

Prompt: Find TGI (OVCAR-8 ovarian) for the entry `CCCCCC/C=C/C#CCCCCCCCC(=O)O`
Response: > 100 µM

Prompt: Find TGI (OVCAR-8 ovarian) for the entry `CCCNC1=C2C[C@@H](C)C[C@@H](OC)[C@@H](OC(=O)CCCN)[C@H](C)/C=C(\C)[C@@H](OC(N)=O)[C@H](OC)/C=C\C=C(/C)C(=O)NC(=CC1=O)C2=O`
Response: 43.7 µM

Prompt: Find TGI (OVCAR-8 ovarian) for the entry `Cc1ccc(Nc2c3c(c(C#N)c4nc5ccccc5n24)CCCC3)cc1`
Response: > 100 µM

Prompt: Find TGI (OVCAR-8 ovarian) for the entry `O=C1Cc2c(-c3ccccc3)cc(-c3ccccc3)nc2-c2ccccc2N1`
Response: 21 µM

Prompt: Find TGI (OVCAR-8 ovarian) for the entry `Cc1sc2c(c1C)C(=O)c1cccn1-2`
Response: > 100 µM

Prompt: Find TGI (OVCAR-8 ovarian) for the entry `CC(=O)Nc1ccc(NC(=O)CC(=O)Nc2ccc(NC(C)=O)cc2)cc1`
Response: > 100 µM

====

- Tested on: LOX IMVI melanoma
- method: NCI tumour cell line growth inhibition, 48 h
List of TGI values.

Solved cases (4 shown):
>>> meas_value("c1ccc(CN2CCC(=NN3CCCCC3)CC2)cc1")
"> 100 µM"
>>> meas_value("COC(=O)c1cc(-c2ccc3ccccc3c2)[nH]c(=O)c1C#N")
"> 100 µM"
>>> meas_value("Cc1cccc2c(N)c3cccc(C(=O)NCC[N+](C)(C)Cc4ccc([N+](=O)[O-])n4C)c3nc12")
"> 64.9 µM"
>>> meas_value("C[C@H]1CCC/C=C/C2CC(OC(=O)CN(C)C)CC2C(OC(=O)CN(C)C)/C=C/C(=O)O1 (stereo not given in full)")
"2.67 µM"

Now for the compound whose TGI we want.
Prompt: # get_value(readout='TGI', item= `Cc1nc2cn3c(c2c(=O)[nH]1)CCCCC3` )
Response: > 100 µM

====

- Tested on: IGROV1 ovarian
- method: NCI tumour cell line growth inhibition, 48 h; in the data active means GI50 below about 0.43 µM; inactive means the rest
Outcomes you can answer with include only these: true (1) for active, false (0) for inactive

Worked examples, 8 compounds total:
>>> classification("C[C@@H](O)[C@@H](C)Oc1nc(Nc2ccc(S(=N)(=O)C3CC3)cc2)ncc1C(F)(F)F (stereo not given in full)")
"true (1)"
>>> classification("Cc1nc2ccccn2c1NC(=O)NN1C(=O)CSC1c1ccc(Cl)cc1 (stereo not given)")
"false (0)"
>>> classification("Nc1nc(N)c2c(n1)NC(c1sc(Cl)nc1Cl)CC(c1ccccc1)=N2 (stereo not given)")
"false (0)"
>>> classification("Cc1cc(S(=O)(=O)/N=C(\\N)Nc2cccc(O)c2)c(SCc2ccccc2)cc1Cl")
"false (0)"
>>> classification("Cc1cccc2c(C3=C(c4cn(C)c5ccccc45)C(=O)NC3=O)cn(C)c12")
"false (0)"
>>> classification("COc1ccc(C(=O)/C=C/c2sc(Cl)nc2Cl)cc1")
"true (1)"
>>> classification("CN(C)c1ccc(C(=S)c2ccc(N(C)C)cc2)cc1")
"false (0)"
>>> classification("COc1cccc(/C=N/[N-]C(=O)c2ccncc2)c1[O-].[Mn+2].[OH3+]")
"false (0)"

Prompt: Please let me know the test result on file for `O=c1cc(-c2ccc(Cl)cc2)[nH]c2ccccc12` .
Response: false (0)

Prompt: Please let me know the test result on file for C[C@H]1CCC/C=C/C2CC(OC(=O)CN(C)C)CC2C(OC(=O)CN(C)C)/C=C/C(=O)O1 (stereo not given in full) .
Response: false (0)

====

- System: SW-620 colon
- method: NCI tumour cell line growth inhibition, 48 h
List of TGI values.

Prompt: # get_value(readout='TGI', item= `Clc1ccc(Nc2ncco2)cc1Cl` )
Response: > 10 µM

Prompt: # get_value(readout='TGI', item= Nc1nc(=O)n(C2CC(O)C(CO)O2)cc1F (stereo not given) )
Response: > 100 µM

Prompt: # get_value(readout='TGI', item= Nc1nc(N)c2c(n1)NC(c1sc(Cl)nc1Cl)CC(c1ccccc1)=N2 (stereo not given) )
Response: 13.3 µM

Prompt: # get_value(readout='TGI', item= `C[N+]1=C(c2cccnc2/C=N/O)OCC1(C)C` )
Response: > 100 µM

Prompt: # get_value(readout='TGI', item= `O=C1NC(=O)C(C(=O)C(=O)Nc2cc(Cl)ccc2Cl)C(=O)N1` )
Response: > 100 µM

Prompt: # get_value(readout='TGI', item= `COC(=O)c1cc(-c2ccc3ccccc3c2)[nH]c(=O)c1C#N` )
Response: > 100 µM
